Target: TLR7/NFKb HEK cells (Homo sapiens)
Experiment: HEK Cell Assay (TLR7/NFKb reporter, Steady-Glo luciferase readout)
Details: 30 min compound preincubation, then R*48 agonist for 5 hours, read-out: Potency
Counter-ions that a name gives are not always drawn.
Experimental readout: IC50

>>> df
                                    compound  experimental_readout             value
 0  C[C@H]1C[C@@H](NC(=O)[C@@H](N)Cc2cccnc2)CN(c2ccc(C#N)c3nccnc23)C1 [Compound 116]                  IC50         < 1000 nM
 1  COC(C)C(=O)N[C@@H]1C[C@H](C)CN(c2ccnc3nccnc23)C1 (single isomer, unassigned) [Compound 161]                  IC50        > 10000 nM
 2  COC(C)C(=O)N[C@@H]1C[C@H](C)CN(c2ccc(C#N)c3nccnc23)C1 (single isomer, unassigned) [Compound 159]                  IC50  1000 to 10000 nM
 3  C[C@H]1C[C@@H](NC(=O)C2(N)COC2)CN(c2ccnc3nccnc23)C1 [Compound 128]                  IC50        > 10000 nM
 4  C[C@H]1C[C@@H](NC(=O)[C@@H](N)Cc2cccnc2)CN(c2ccnc3nccnc23)C1 [Compound 118]                  IC50  1000 to 10000 nM
 5  C[C@H]1C[C@@H](NC(=O)CO)CN(c2ccc(C#N)c3nccnc23)C1 [Compound 97]                  IC50         < 1000 nM
 6  C[C@H]1C[C@@H](NC(C)(C)CO)CN(c2ccc(C#N)c3nccnc23)C1 [Compound 231]                  IC50         < 1000 nM
 7  C[C@H]1C[C@@H](NC(=O)CC2CCN(CC(F)F)CC2)CN(c2ccc(C(F)(F)F)c3nccnc23)C1 [Compound 256]                  IC50         < 1000 nM
 8  CC(C(=O)N[C@@H]1C[C@H](C)CN(c2ccc(C(F)(F)F)c3ncccc23)C1)N1CCC(O)CC1 (stereo partly drawn) [Compound 289]                  IC50         < 1000 nM
 9  FC(F)(F)CCN[C@H]1C[C@@H](C(F)(F)F)CN(c2ccnc3nccnc23)C1 (relative stereo) [Compound 96, hydrochloride]                  IC50        > 10000 nM
10  N#Cc1ccc(N2C[C@@H](N)C[C@@H](F)C2)c2nccnc12 [Compound 501, hydrochloride]                  IC50        > 10000 nM
11  CCN1CCC(NC(=O)C2CN(c3ccc(C#N)c4ncccc34)CC(F)(F)C2)CC1 (stereo not drawn) [Compound 532]                  IC50         < 1000 nM
12  CN1CCC(CC(=O)NC2CN(c3ccc(C#N)c4nccnc34)CC(F)(F)C2)CC1 (single isomer, unassigned) [Compound 523]                  IC50         < 1000 nM
13  C[C@H]1C[C@@H](NC(=O)CN(C)C)CN(c2ncc(F)c3nccnc23)C1 [Compound 460]                  IC50        > 10000 nM
14  CN1CCC(NC2CC(C(F)(F)F)CN(c3ccc(C#N)c4nccnc34)C2)C1=O (single isomer, unassigned) [Compound 226]                  IC50         < 1000 nM

* * *

Target: TLR7/NFKb HEK cells (Homo sapiens)
Test: HEK Cell Assay (TLR7/NFKb reporter, Steady-Glo luciferase readout)
Conditions: 30 min compound preincubation, then R*48 agonist for 5 hours, read-out: Potency
pIC50: −log10 of the molar value.
// reported pIC50 per item
Experimental readout: pIC50

In [3]: df
Out[3]:
                                   molecule                 experimental_system         value
0  C[C@H]1C[C@@H](NC(=O)CN2CC(O)C2)CN(c2ccc(C(F)F)c3nccnc23)C1  TLR7/NFKb HEK cells (Homo sapiens)  5.00 to 6.00
1  C[C@@H]1CN(c2ccnc3nccnc23)C[C@H](CN2CCN(C)C(C)(C)C2)O1  TLR7/NFKb HEK cells (Homo sapiens)        > 6.00
2  C[C@H]1C[C@@H](NC2CCN(C)C2=O)CN(c2ccc(C#N)c3nccnc23)C1 (single isomer, unassigned) [Compound 125]  TLR7/NFKb HEK cells (Homo sapiens)        > 6.00
3    CCN(C)CC(=O)NCC1CCN(c2ccnc3nccnc23)CC1  TLR7/NFKb HEK cells (Homo sapiens)  5.00 to 6.00

* * *

Target: TLR7/NFKb HEK cells (Homo sapiens, UniProt Q9NYK1)
Sequence (Q9NYK1 27-1049): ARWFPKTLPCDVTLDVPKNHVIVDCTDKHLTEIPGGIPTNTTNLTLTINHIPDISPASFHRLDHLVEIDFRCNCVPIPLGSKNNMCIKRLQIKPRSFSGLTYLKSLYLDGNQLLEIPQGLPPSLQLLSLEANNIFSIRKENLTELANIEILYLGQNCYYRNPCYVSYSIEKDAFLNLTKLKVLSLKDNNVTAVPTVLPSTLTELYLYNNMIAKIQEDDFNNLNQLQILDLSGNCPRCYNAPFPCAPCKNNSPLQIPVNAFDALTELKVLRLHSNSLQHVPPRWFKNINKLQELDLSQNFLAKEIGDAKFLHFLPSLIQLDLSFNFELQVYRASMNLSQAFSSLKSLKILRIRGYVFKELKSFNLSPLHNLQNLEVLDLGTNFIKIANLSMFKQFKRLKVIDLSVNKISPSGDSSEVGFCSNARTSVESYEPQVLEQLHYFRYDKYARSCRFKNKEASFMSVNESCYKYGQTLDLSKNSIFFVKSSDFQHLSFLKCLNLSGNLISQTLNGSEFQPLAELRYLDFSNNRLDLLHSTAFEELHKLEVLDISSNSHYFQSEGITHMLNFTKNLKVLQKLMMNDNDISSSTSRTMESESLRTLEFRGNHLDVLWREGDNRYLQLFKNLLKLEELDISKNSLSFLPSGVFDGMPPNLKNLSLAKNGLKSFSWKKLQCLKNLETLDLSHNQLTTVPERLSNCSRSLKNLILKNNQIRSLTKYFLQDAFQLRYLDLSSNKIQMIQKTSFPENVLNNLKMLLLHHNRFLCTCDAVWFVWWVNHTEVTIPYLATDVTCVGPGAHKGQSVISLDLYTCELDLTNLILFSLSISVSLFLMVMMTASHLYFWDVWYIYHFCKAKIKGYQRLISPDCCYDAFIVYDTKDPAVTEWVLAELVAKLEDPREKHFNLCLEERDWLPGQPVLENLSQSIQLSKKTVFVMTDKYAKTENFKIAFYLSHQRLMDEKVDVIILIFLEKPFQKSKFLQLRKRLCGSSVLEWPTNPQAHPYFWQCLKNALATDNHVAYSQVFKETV
Assay: HEK Cell Assay (TLR7/NFKb reporter, Steady-Glo luciferase readout)
Conditions: 30 min compound preincubation, then R*48 agonist for 5 hours, read-out: Potency
pIC50: −log10 of the molar value.
// reported pIC50 per item
Experimental readout: pIC50

In [3]: df
Out[3]:
                                   compound  experimental_readout         value
0  N#Cc1ccc(N2CCC(CNC(=O)CN3CCCCC3)CC2)c2cccnc12                 pIC50        > 6.00
1  C[C@H]1C[C@@H](NC(=O)C2CCCN2C)CN(c2ccc(C#N)c3nccnc23)C1 (some centres unmarked)                 pIC50        > 6.00
2  C[C@H]1C[C@@H](NC(=O)Cc2c[nH]cn2)CN(c2ccnc3nccnc23)C1                 pIC50        < 5.00
3  O=C(NC1CN(c2ccc(C(F)(F)F)c3ncccc23)CC(F)(F)C1)C(O)C1CC1 (centres unmarked)                 pIC50  5.00 to 6.00
4  CCN1CCC[C@H]1C(=O)NC1CC(C(F)(F)F)CN(c2ccc(C#N)c3ncccc23)C1 (single isomer, unassigned) [Compound 438]                 pIC50  5.00 to 6.00
5  CN(C)CCNC(=O)N1CCN(c2ccc(C#N)c3nccnc23)CC1                 pIC50        > 6.00
6  C[C@H]1C[C@@H](NC(=O)C2CCN(C)C2)CN(c2ccc(C(F)(F)F)c3nccnc23)C1 (some centres unmarked)                 pIC50        > 6.00
7  CNC(=O)[C@@H]1C[C@H](C)CN(c2ccc(C#N)c3nccnc23)C1 (relative stereo)                 pIC50  5.00 to 6.00

* * *

// reported pIC50 per item
Target: TLR7/NFKb HEK cells (Homo sapiens)
Test: HEK Cell Assay (TLR7/NFKb reporter, Steady-Glo luciferase readout)
Conditions: 30 min compound preincubation, then R*48 agonist for 5 hours, read-out: Potency
pIC50: −log10 of the molar value. Counter-ions that a name gives are not always drawn.
Experimental readout: pIC50

                                   compound   value
0  CN(C(=O)CN1CCOCC1)[C@H]1C[C@@H](C2CC2)CN(c2ccc(C(F)(F)F)c3ncccc23)C1 (relative stereo) [Compound 337]  < 5.00
1  C[C@H]1C[C@@H](O)CN(c2ccc(C#N)c3nccnc23)C1 [Compound 81]  > 6.00
2  C[C@H]1C[C@@H](N2CC[C@@H](N)C2=O)CN(c2ccnc3nccnc23)C1 [Compound 42]  < 5.00
3  C[C@H]1C[C@@H](NC2CCN(C)C2=O)CN(c2ccc(C(F)(F)F)c3nccnc23)C1 (single isomer, unassigned) [Compound 353]  > 6.00
4  CC(C)[C@@H](N)C(=O)N[C@@H]1C[C@H](C)CN(c2ccnc3nccnc23)C1 [Compound 104]  < 5.00
5  C[C@H]1C[C@@H](NC(=O)Cc2c[nH]cn2)CN(c2ccc(C#N)c3nccnc23)C1 [Compound 130, hydrochloride]  > 6.00
6  CC(C)[C@H](O)C(=O)N[C@H]1C[C@@H](C(F)(F)F)CN(c2ccnc3nccnc23)C1 [Compound 90, hydrochloride]  < 5.00

* * *

// reported pIC50 per item
Molecular target: TLR7/NFKb HEK cells (Homo sapiens)
Assay: HEK Cell Assay (TLR7/NFKb reporter, Steady-Glo luciferase readout)
Details: 30 min compound preincubation, then R*48 agonist for 5 hours, read-out: Potency
pIC50: −log10 of the molar value. Counter-ions that a name gives are not always drawn.
Experimental readout: pIC50

                                    molecule                 experimental_system  experimental_readout         value
 0  C[C@@H]1CN(c2ccnc3ccccc23)C[C@H](C)O1 [Compound 45]  TLR7/NFKb HEK cells (Homo sapiens)                 pIC50        < 5.00
 1  COCCN[C@@H]1C[C@H](C)CN(c2c(F)cc(C#N)c3nccnc23)C1 [Compound 344]  TLR7/NFKb HEK cells (Homo sapiens)                 pIC50  5.00 to 6.00
 2  CN1CCC(CC(=O)NC2CN(c3ccc(C#N)c4nccnc34)CC(F)(F)C2)CC1 (racemic) [Compound 504]  TLR7/NFKb HEK cells (Homo sapiens)                 pIC50        > 6.00
 3  Cc1cc(N2CCC(CNCCN3CCCCC3)CC2)c2cc(F)ccc2n1 [Compound 381]  TLR7/NFKb HEK cells (Homo sapiens)                 pIC50  5.00 to 6.00
 4  Cc1cnc2c(N3C[C@@H](C)C[C@@H](N)C3)ccc(C#N)c2n1 [Compound 525]  TLR7/NFKb HEK cells (Homo sapiens)                 pIC50        > 6.00
 5  C[C@H]1C[C@@H](NC(=O)CNS(C)(=O)=O)CN(c2ccnc3nccnc23)C1 [Compound 141]  TLR7/NFKb HEK cells (Homo sapiens)                 pIC50        < 5.00
 6  C[C@H]1C[C@@H](NC(=O)CN2CCC(F)(F)CC2)CN(c2ccc(C#N)c3nccnc23)C1 [Compound 348]  TLR7/NFKb HEK cells (Homo sapiens)                 pIC50        > 6.00
 7  C[C@H]1C[C@@H](NC(=O)C(N)C(F)(F)F)CN(c2c(F)cc(C#N)c3nccnc23)C1 (single isomer, unassigned) [Compound 345]  TLR7/NFKb HEK cells (Homo sapiens)                 pIC50        < 5.00
 8  C[C@H]1C[C@@H](NC(=O)C2(N)COC2)CN(c2ccc(C#N)c3nccnc23)C1 [Compound 129]  TLR7/NFKb HEK cells (Homo sapiens)                 pIC50  5.00 to 6.00
 9  CC1(C)C[C@@H](NC(=O)C(N)C(F)(F)F)CN(c2ccc(C#N)c3nccnc23)C1 (single isomer, unassigned) [Compound 211]  TLR7/NFKb HEK cells (Homo sapiens)                 pIC50  5.00 to 6.00
10  CC1(C)C[C@@H](N)CN(c2ccc(C#N)c3nccnc23)C1 [Compound 210, hydrochloride]  TLR7/NFKb HEK cells (Homo sapiens)                 pIC50        > 6.00
11  C[C@H]1C[C@@H](NC(=O)[C@H](C)N(C)C)CN(c2ccc(C(F)(F)F)c3ncccc23)C1 [Compound 526]  TLR7/NFKb HEK cells (Homo sapiens)                 pIC50        > 6.00
12  C[C@H]1C[C@@H](NC(=O)CC2(C)CCN(C)CC2)CN(c2ccc(C#N)c3nccnc23)C1 [Compound 233]  TLR7/NFKb HEK cells (Homo sapiens)                 pIC50        > 6.00
13  CCN(CC)CCNC(=O)C1CCN(c2ccc(C#N)c3ncccc23)CC1 [Compound 407]  TLR7/NFKb HEK cells (Homo sapiens)                 pIC50        > 6.00
14  C[C@H]1C[C@@H](NC(=O)CN2CCCN(C)CC2)CN(c2ccc(C(F)(F)F)c3nccnc23)C1 [Compound 362]  TLR7/NFKb HEK cells (Homo sapiens)                 pIC50        > 6.00
15  N#Cc1ccc(N2CC(NC(=O)CC3(N)CCCCC3)CC(C(F)(F)F)C2)c2cccnc12 (single isomer, unassigned) [Compound 498]  TLR7/NFKb HEK cells (Homo sapiens)                 pIC50        > 6.00
